All figures here come from ChEMBL document CHEMBL1136683.

procedure details: Tmax after peroral administration (10 mg/kg) was determined in rat
Type: ADME, organism-based
condition set: in vivo, po
readout: Tmax
Write down the value, and be sure its unit follows.

IN: Fill blank: measured Tmax of the compound O=C(N[C@H]1c2ccccc2C[C@H]1O)[C@H](Cc1cccc(O)c1)[C@@H](C(=O)NO)C1CCNCC1 is ____.
OUT: 1.5 h

----------
procedure details: Vss after intravenous administration (0.5 mg/kg) was determined in dog
Format: ADME, organism-based, Canis lupus familiaris
condition set: in vivo, read-out: Vss
readout: Vd (L/kg)
Write the value in L/kg as a bare number.

IN: Fill blank: measured Vd of the compound O=C(N[C@H]1c2ccccc2C[C@H]1O)[C@H](Cc1cccc(O)c1)[C@@H](C(=O)NO)C1CCNCC1 is ____.
OUT: 0.2
